Cited source: FireProtDB (doi:10.1021/bi00042a027)

B1: Phosphoglycerate kinase, P00560 (parent)
chain: MSLSSKLSVQDLDLKDKRVFIRVDFNVPLDGKKITSNQRIVAALPTIKYVLEHHPRYVVLASHLGRPNGERNEKYSLAPVAKELQSLLGKDVTFLNDCVGPEVEAAVKASAPGSVILLENLRYHIEEEGSRKVDGQKVKASKEDVQKFRHELSSLADVYINDAFGTAHRAHSSMVGFDLPQRAAGFLLEKELKYFGKALENPTRPFLAILGGAKVADKIQLIDNLLDKVDSIIIGGGMAFTFKKVLENTEIGDSIFDKAGAEIVPKLMEKAKAKGVEVVLPVDFIIADAFSADANTKTVTDKEGIPAGWQGLDNGPESRKLFAATVAKAKTIVWNGPPGVFEFEKFAAGTKALLDEVVKSSAAGNTVIIGGGDTATVAKKYGVTDKISHVSTGGGASLELLEGKELPGVAFLSEKK

# Variants of: B1
# protocolConditions: Saccharomyces cerevisiae (strain ATCC 204508 / S288c); pH 7.5; 25 °C; GdnHCl; Fluorescence; Sodium phosphate 20 mM; structure 3PGK; whole UniProt chain shown
endpointLabel: unfolding free energy (kcal/mol)
Give a bare numeral; the unit kcal/mol is implied.

>>> df
   variantidentifier  measureunit  measurednumber
0              W334Y     kcal/mol            7.66
1              W309Y     kcal/mol            9.42
2              L400W     kcal/mol            4.15

Lab note: next variant to report on.
Q: Entry Y49W W309Y : reported unfolding free energy = ?
Result: 6.84
